test: chemical genetic growth profiling, strain panel (AID 1159580);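 further: tested at 20 µM; growth read once vehicle control cultures reached saturation at 30 °C; 1 = growth at the plate median or of vehicle wells; lower values mean less growth of the strain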; conditions: S. cerevisiae deletion strains, growth OD, locus YAL030W, strain snc1, active compounds read low
Screen size: about 5,500 compounds; about 2,000 (36%) were called active. Inconclusive results (about 18%) are left out. The list shows a part of the results.
# normalized growth per record follows

{"compound": "COC(=O)[C@]1(C)CCC[C@]2(C)c3ccc(C(C)C)cc3C(=O)CC12 (stereo not given in full)", "normalized growth": 0.974}
{"compound": "CC(=O)Oc1ccc2c(c1C(C)C)CCC1C(C)(C)CCC[C@]21C (stereo not given in full)", "normalized growth": 1.01}
{"compound": "NC(=O)CN1CCCC1=O", "normalized growth": 0.992}
{"compound": "N#Cc1nn(-c2c(Cl)cc(C(F)(F)F)cc2Cl)c(N)c1S(=O)C(F)(F)F (stereo not given)", "normalized growth": 0.986}
{"compound": "CC(=O)[C@@]1(O)CCC2C3C[C@H](C)C4=CC(=O)C=CC4(C)[C@@]3(F)[C@@H](O)C[C@@]21C (stereo not given in full)", "normalized growth": 0.961}

The reported measurements were obtained from PubChem BioAssay AID1159580.
